Experiment Summary: Caspase-3/7 induction in CHO-K1 cells by small molecules, qHTS assay (AID 1346980); further: on the % scale 0 is the no-effect control and ±100 the full control effect; nearly all actives have a fitted effect of over 15% in size
Condition Summary: CHO-K1 caspase-3/7 induction, Caspase-Glo luminescence, 17 h; series mostly up to 92.4 µM
Calls of active or inactive are those of the source. The call rests on the fitted dose curve; in most records, active means well fitted activation curve with a large enough effect in the repeat runs; inconclusive means weak or mixed curves; inactive means flat fitted curve, though single readings scatter.
Value Kind: caspase-3/7 activation

1. N#CC1(N)CCCCC1; inactive
2. CC(C)(C)c1ccc(N)cc1; inactive
3. Cc1ccc(S(=O)(=O)NC(=O)NN2CC3CCCC3C2)cc1 (stereo unspecified); inactive
4. C=CCON/C(CCC)=C1\C(=O)CC(C)(C)C(C(=O)OC)=C1O; inactive
5. CC(C)C(=O)Nc1cccc(C2CN3CCSC3=N2)c1 (stereo unspecified); inactive
6. C[C@@H]1CCC[C@H](C)N1CCCC(O)(c1ccccc1)c1ccccn1 (stereo partly specified); inactive
7. Cc1cc2c(cc1CC(=O)c1sccc1S(=O)(=O)Nc1onc(C)c1Cl)OCO2; inactive
8. CC(C)(C)C(=O)CC(=O)C(C)(C)C; inactive
9. CCO[Si](CC(C)C)(OCC)OCC; inactive
10. NC[C@H]1O[C@H](O[C@H]2[C@H](O)[C@@H](O[C@H]3O[C@H](CO)[C@@H](O)[C@H](N)[C@H]3O)[C@H](N)C[C@@H]2N)[C@H](N)[C@@H](O)[C@@H]1O; -0.57% [at 19 µM] (inactive)
11. O=C1Nc2ccccc2C1=O; inactive

====

Experiment Summary: qHTS assay to identify small molecule agonists or antagonists of the thyroid stimulating hormone receptor (TSHR) signaling pathway - wild type cell line counter screen (AID 1259384); further: on the % scale 0 is the no-effect control and ±100 the full control effect
Condition Summary: HEK293 wild type, cAMP HTRF counter-screen, stronger effect = higher value; series mostly up to 92.4 µM
Inconclusive results are not listed. Activity calls are given as the source filed them. Calls come from the whole dose curve.
Value Kind: cAMP activity change

1) CCCCCCCCCCCC(C)=O; inactive
2) CN(C)c1cc(NC(=O)CNC(C)(C)C)c(O)c2c1C[C@H]1C[C@H]3[C@H](N(C)C)C(=O)C(C(N)=O)=C(O)[C@@]3(O)C(=O)C1=C2O; inactive
3) Cc1nc2ccc(Cl)cc2[nH]1; inactive
4) CCCCN1C(=O)c2ccccc2C1=O; inactive
5) CC(C)(C)C(=O)CC(=O)C(C)(C)C; inactive
6) Cc1nnc(C(=O)NC(C)(C)c2nc(C(=O)NCc3ccc(F)cc3)c(O)c(=O)n2C)o1; inactive
7) COC(=O)C(c1ccccc1Cl)N1CCc2sccc2C1 (stereo not drawn); inactive
8) CCCC(C)C(O)CC (stereo not drawn); inactive
9) CC(C)C(C)C; inactive
10) C[C@H]1COc2c(C3(N)CC3)c(F)cc3c(=O)c(C(=O)O)cn1c23; inactive
11) CCOC(=O)CC(C(C)=O)C(C)=O; inactive
12) CC(=O)OC1CCC(C(C)(C)C)CC1 (stereo not drawn); inactive
13) CC(C)C(=O)Nc1cccc(C2CN3CCSC3=N2)c1 (stereo not drawn); inactive

====

Tested Target: Progesterone receptor (Homo sapiens)
Experiment Summary: qHTS assay to identify small molecule antagonists of the progesterone receptor (PR) signaling pathway (AID 1346795); further: on the % scale 0 is the no-effect control and ±100 the full control effect
Condition Summary: PR-UAS-bla HEK293T, beta-lactamase FRET ratio, 16 h; series mostly up to 92.4 µM
Records with an inconclusive call do not appear. Activity calls are given as the source filed them. The call rests on the fitted dose curve; in most records, active means well fitted inhibition curve with a large enough effect in the signal ratio in the repeat runs (not every such curve was filed as active); inconclusive means weak or mixed curves; inactive means flat fitted curve, though single readings scatter; the % refers to the signal ratio.
Value Kind: activity change, negative = inhibition

1) Cc1cc(N)no1; inactive
2) CC(=O)c1ccc(O)c(C(N)=O)c1; inactive
3) C/C(=N\O)c1ccc(OCC(=O)N2CCCCC2)cc1; inactive
4) Cc1cc(O)c(Cl)cc1C; inactive
5) CCCCN=C(N)N=C(N)N; inactive
6) Cc1ccc(OC(=O)CC(C)C)cc1; inactive
7) CCc1ncc(C)[nH]1; inactive
8) CC(C)(O)c1ccc(C(C)(C)O)cc1; inactive
9) O=Cc1ccc(C(=O)O)cc1; inactive
10) O=C[C@@H](O)[C@H](O)[C@H](O)CO; inactive
11) CN1CCN(C(=O)C2CCCCC2)CC1; inactive
12) Cc1ccccc1OCC(=O)O; inactive
13) CC(CC(=O)Cl)CC(C)(C)C (stereo not drawn); inactive
14) C=CCCCCCCCCOC(C)=O; inactive
15) CCOC(=O)CN1CCCC1=O; inactive
16) CCCCCCCCCCCBr; inactive
17) O=S(=O)(O)c1ccc(Cl)cc1; inactive
18) CCO/C=C1\N=C(c2ccccc2)OC1=O; inactive

====

Experiment Summary: qHTS assay to identify small molecule agonists of the estrogen related receptor (ERR) signaling pathway from Tox21 library (AID 1224849); further: on the % scale 0 is the no-effect control and ±100 the full control effect; nearly all actives have a fitted effect of over 15% in size
Condition Summary: ERR reporter cell line, ONE-Glo luciferase, 18 h; at 92.4 µM (top of the series) unless noted
Calls of active or inactive are those of the source. The call rests on the fitted dose curve.
Labels: yes for active, no for inactive

1) NC(=O)CC[C@@H](N)C(=O)O; no
2) O=c1[nH]c(=O)c2cn[nH]c2[nH]1; no
3) Cc1cc(C)c(C)c(C)c1; no
4) COc1ccc(Cl)cc1C; no
5) NNC(=O)OCc1ccccc1; no
6) O=C(O)Cc1c(Cl)ccc(Cl)c1Cl; no
7) CN(C)c1cc(NC(=O)CNC(C)(C)C)c(O)c2c1C[C@H]1C[C@H]3[C@H](N(C)C)C(=O)C(C(N)=O)=C(O)[C@@]3(O)C(=O)C1=C2O; no
8) CC(=O)Nc1ccc(OCCOCCOc2ccc(NC(C)=O)cc2)cc1; no
9) C=CCCCCCCCCOC(C)=O; no
10) CC[C@@]1(c2ccccc2)NC(=O)N(C)C1=O; no
11) CCC(C)(C)C; no
12) Nc1nc(Cl)cc(Cl)n1; no
13) CC1(C)CC(N)CC(C)(C)N1; no
14) CC(CC(=O)Cl)CC(C)(C)C (stereo unspecified); no
15) COc1ccc2cc(CCC(C)=O)ccc2c1; yes
16) O=S(=O)(O)c1cc(I)c(O)c2ncccc12; no
17) C=CCCCCCCCCCCCCCC; no
18) O=C(O)CCC(=O)Nc1ccc(S(=O)(=O)Nc2nccs2)cc1; no
19) Cc1ccccc1OCC(=O)O; no
20) O=C(O)CCCCCCCCCC(=O)O; no
21) C[C@]12C=CC(=O)C=C1[C@@H](F)C[C@@H]1[C@@H]2[C@@H](O)C[C@@]2(C)[C@H]1CC[C@]2(O)C(=O)CO; no

====

Tested Target: Nuclear receptor subfamily 1 group I member 3 (Homo sapiens) (UniProt Q14994)
Sequence (Q14994 whole entry, looked up): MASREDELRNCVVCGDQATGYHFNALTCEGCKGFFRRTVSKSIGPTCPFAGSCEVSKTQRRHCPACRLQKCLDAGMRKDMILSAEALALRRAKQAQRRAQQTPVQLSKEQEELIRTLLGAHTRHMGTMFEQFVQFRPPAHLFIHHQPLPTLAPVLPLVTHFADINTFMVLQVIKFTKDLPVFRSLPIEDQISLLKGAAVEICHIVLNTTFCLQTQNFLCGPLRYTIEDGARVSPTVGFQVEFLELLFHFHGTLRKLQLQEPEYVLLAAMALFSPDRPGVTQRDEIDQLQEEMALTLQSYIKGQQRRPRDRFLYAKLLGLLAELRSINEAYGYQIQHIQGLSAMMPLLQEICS
Experiment Summary: qHTS assay to identify small molecule antagonists of the constitutive androstane receptor (CAR) signaling pathway (AID 1224838);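 further: HepG2 cells stably expressing hCAR with CYP2B6 luciferase reporter stimulated by CITCO; on the % scale 0 is the no-effect control and ±100 the full control effect; nearly all actives have a fitted effect of over 40% in size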
Condition Summary: HepG2-CYP2B6-hCAR luciferase, CITCO-stimulated, 24 h; series mostly up to 92.4 µM
Results filed as inconclusive are left out. Activity calls are given as the source filed them. The call rests on the fitted dose curve; in most records, active means well fitted inhibition curve with a large enough effect in the repeat runs; inconclusive means weak or mixed curves, or effect the other way; inactive means no such curve, though single readings can be large or run the other way.
Value Kind: activity, negative = inhibition

1. CC(C)OCCO; inactive
2. Clc1cc(Cl)c(Cl)c(Cl)c1Cl; inactive
3. COc1cc(OC)cc(OC)c1; inactive
4. CCCCC(CC)CCC(CC(C)C)OS(=O)(=O)O (stereo not given); inactive
5. CC(C)C(C)C; inactive
6. CCCCN(CCCC)CCCCCCN(CCCC)CCCC; inactive
7. CC(C)C[P+](C)(CC(C)C)CC(C)C; inactive
8. O=S(=O)(O)c1ccc(Cl)cc1; inactive
9. COC(=O)c1ccc(NC(C)=O)cc1OC; inactive
10. CC/C=C\CCCCCCCCCCOC(C)=O; inactive
11. COc1cc(C(=O)NC2CCCNC2)cc(OC)c1OC (stereo not given); inactive
12. CN1CCN(C(=O)C2CCCCC2)CC1; inactive
13. CCCCN1C(=O)c2ccccc2C1=O; inactive
14. CC(=O)c1c(C)cc(C(C)(C)C)cc1C; inactive
15. O=c1c(O)c(O)c1=O; inactive

====

Experiment Summary: qHTS RealTime-Glo MT Cell Viability Assay in HEK293 cells - 40 hour (AID 1224874); further: on the % scale 0 is the no-effect control and ±100 the full control effect; nearly all actives have a fitted effect of over 50% in size
Condition Summary: RealTime-Glo luminescence, stronger effect = lower value
Results filed as inconclusive are left out.
Value Kind: max response (%)

1) CCCCCCCC(=O)N(C)C; 4.49
2) CCOC(=O)COc1ccc2c(C)c(CCN(CC)CC)c(=O)oc2c1Cl; 1.31
3) Cc1ccc(NC(N)=O)cc1; 11.1
4) CCCCCCCCCCCBr; -3.54
5) CCOC(=O)CN1CCCC1=O; 0.653
6) CC(=O)OC/C=C(/C)CCC=C(C)C; -1.6
7) CCCc1ccc(O)c(OC)c1; 6.36
8) O=C(O)P(=O)(O)O; 10.7
9) CCCCN1C(=O)c2ccccc2C1=O; -3.23
10) CC(=O)OCC(=O)[C@@]1(O)CC[C@H]2[C@@H]3CCC4=CC(=O)C=C[C@]4(C)[C@H]3[C@@H](O)C[C@@]21C; -2.13
11) CC12CCCC=C1C(=O)OC2=O (stereo unspecified); 7.32
12) OCCC(F)(F)C(F)(F)C(F)(F)C(F)(F)C(F)(F)C(F)(F)F; -4.06
13) C=CCOC(=O)CCCCCCCC; 16
14) C/C(=N\O)c1ccc(OCC(=O)N2CCCCC2)cc1; -11.7
15) COc1cc(S(N)(=O)=O)cc(C(=O)O)c1OC; 0.543
16) COc1ccccc1N1CCN(CC(O)COc2cc(OC)c(OC)c(OC)c2)CC1 (stereo unspecified); 4.13
17) CC1=C(O)C(=O)CO1; 0.017
18) O=C(O)Cc1c(Cl)ccc(Cl)c1Cl; 2.56
19) Cc1ccccc1OCC(=O)O; 3.48
20) CC(=O)Oc1ccc(C(C)=O)cc1; -8
21) CCCCC(CC)COC(=O)CC#N (stereo unspecified); 0.0288
22) CC(C)C[P+](C)(CC(C)C)CC(C)C; -17.7
23) Cc1ccc(Br)cc1; 0.938
24) CC(C)c1cc(C(C)C)cc(C(C)C)c1; 5.73
25) CC(C)(C)OC=O; 8.37
26) Clc1ccc2c(c1)Nc1ccccc1S2; -17.2
27) NNC(=O)CCCCC(=O)NN; 3.47
28) CC1(C)CC(N)CC(C)(C)N1; 16.7
29) C[C@H]1COc2c(C3(N)CC3)c(F)cc3c(=O)c(C(=O)O)cn1c23; 1.9
30) CCCc1ncc(C(=O)O)s1; 0.25
31) CCOCCOCCOC(C)=O; 7.47
